Ref: patent US20030068675

# target-under-test: T1, ZFP SBS#1445 (synthetic)
# T1 chain: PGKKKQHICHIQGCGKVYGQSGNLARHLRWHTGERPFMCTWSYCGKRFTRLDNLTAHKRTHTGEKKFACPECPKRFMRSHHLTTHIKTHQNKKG
# assay-explanation: EMSA
# run-conditions: tags: MBP fusion
property-name: Kd

{"columns": ["binder", "recorded-result"],
 "data": [
  ["TGGAAGGAA (dsDNA) DNA 1: TGGAAGGAA DNA 2: TTCCTTCCA", "0.182 nM"]
]}
